Read-out: Monocyte Chemoattractant Protein-1 (MCP1), CCL2 (gene 6347)
Assay: BSK_CASM3C_MCP1: BioMAP Diversity Plus: CASM3C Assay for Monocyte Chemoattractant Protein-1 (MCP1) Biomarker Activity (AID 2283046);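 note: MCP-1 level quantified by ELISA 24 h after dosing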
Conditions: primary human coronary artery smooth muscle cells; actives raise or lower the signal
Activity calls are given as the source filed them. Rule for the calls: active = hit-call score of the fitted dose curve at least 0.9, where 1 is the maximum; inactive = score below 0.9.
Parameter call: string, one of 1 (yes) for active, 0 (no) for inactive

Prompt: State the result this test recorded for `O=C(O)C(F)(F)C(F)(F)C(F)(F)C(F)(F)C(F)(F)C(F)(F)C(F)(F)F` .
Response: 0 (no)

Prompt: # outcome recorded in this test, key = `O=C(O)COc1ccc(Cl)cc1Cl`
Response: 0 (no)

Prompt: Each compound tested received a call. Report the one for `COc1cc(OC)nc(NC(=O)NS(=O)(=O)c2cc(NC=O)ccc2C(=O)N(C)C)n1` .
Response: 0 (no)

Prompt: Per the records of this test, what outcome belongs to `COP(=S)(OC)Oc1ccc(SC)c(C)c1` ?
Response: 0 (no)

Prompt: Recorded test call requested for `Clc1ccccc1-c1nnc(-c2ccccc2Cl)nn1`
Response: 0 (no)

Prompt: Hi, do you know how `O=C1c2ccccc2C(=O)N1SC(Cl)(Cl)Cl` came out in this test?
Response: 1 (yes)

Prompt: What call does the record list for `CCS(=O)(=O)c1cccnc1S(=O)(=O)NC(=O)Nc1nc(OC)cc(OC)n1` ?
Response: 0 (no)

Prompt: Could you kindly confirm the outcome this assay logged for `COP(=O)(OC)OC=C(Cl)Cl` ?
Response: 0 (no)

Prompt: For CC1(c2ccc(Oc3ccccc3)cc2)OC(=O)N(Nc2ccccc2)C1=O (configuration not stated) , what call appears in the results of this test?
Response: 0 (no)

Prompt: What did this assay record as the result for `Oc1ccc(Cl)cc1Cc1ccccc1` ?
Response: 1 (yes)

Prompt: Which outcome was assigned to `O=C(Nc1ccccc1)Nc1cnns1` in this test?
Response: 0 (no)

Prompt: Status in this test for `CCc1ccc(C(=O)NN(C(=O)c2cc(C)cc(C)c2)C(C)(C)C)cc1` ?
Response: 0 (no)

====

Molecular target: Androgen Receptor/SRC-1 Co-activator, AR (gene 367)
Assay: OT_AR_ARSRC1_0960: Odyssey Thera (OT) 16-hour HEK293T Protein-Complementation Assay for Androgen Receptor/SRC-1 Co-activator (AID 2283353);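 note: actives raise the signal above DMSO so potency reflects increased AR and SRC-1 complex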
Activity calls are given as the source filed them. Rule for the calls: active = hit-call score of the fitted dose curve at least 0.9, where 1 is the maximum; inconclusive = response in the unintended direction; inactive = score below 0.9.
Respond using exactly one of the listed classes: active, inactive

Prompt: Write down the call the test reported for this molecule. Item: O=S1OCC2C(CO1)C1(Cl)C(Cl)=C(Cl)C2(Cl)C1(Cl)Cl (stereo unspecified)
Response: active

Prompt: What did the test return for `Oc1ccc(Cl)cc1Cc1ccccc1` ?
Response: active

Prompt: Assay result, entry `C#CCN1C(=O)COc2cc(F)c(N3C(=O)C4=C(CCCC4)C3=O)cc21` — outcome?
Response: inactive

Prompt: Kindly provide the recorded test outcome for the following molecule: `O=C(O)CCCOc1ccc(Cl)cc1Cl`
Response: inactive

Prompt: Outcome? `O=[N+]([O-])c1c(Cl)c(Cl)c(Cl)c(Cl)c1Cl`
Response: inactive

Prompt: Outcome? `C[C@H]1[C@H](c2ccc(Cl)cc2)SC(=O)N1C(=O)NC1CCCCC1`
Response: active

====

Target: Peroxisome proliferator-activated receptor gamma (Homo sapiens) (UniProt P37231)
Sequence (P37231 whole entry, looked up): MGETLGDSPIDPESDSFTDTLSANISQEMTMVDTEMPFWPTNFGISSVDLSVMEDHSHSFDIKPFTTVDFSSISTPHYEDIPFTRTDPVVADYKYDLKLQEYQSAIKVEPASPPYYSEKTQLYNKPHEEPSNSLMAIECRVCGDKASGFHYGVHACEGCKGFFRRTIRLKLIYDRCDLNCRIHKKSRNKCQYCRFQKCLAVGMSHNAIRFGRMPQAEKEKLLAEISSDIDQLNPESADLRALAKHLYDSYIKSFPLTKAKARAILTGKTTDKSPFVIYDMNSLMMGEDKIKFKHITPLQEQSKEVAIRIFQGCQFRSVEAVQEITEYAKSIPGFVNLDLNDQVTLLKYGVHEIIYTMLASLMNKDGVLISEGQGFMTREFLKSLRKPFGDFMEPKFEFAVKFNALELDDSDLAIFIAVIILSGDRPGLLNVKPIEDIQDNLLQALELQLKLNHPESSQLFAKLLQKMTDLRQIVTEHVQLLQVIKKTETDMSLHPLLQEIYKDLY
Experiment: ATG_hPPARg_XSP2: Attagene TRANS-FACTORIAL Multi-Species (XSP2) HepG2 Assay for human Peroxisome Proliferator-activated Receptor gamma (PPARg) (AID 2283829);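 note: actives raise reporter mRNA above DMSO so AC50 reflects PPARg activation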
Inconclusive results are not listed. Activity calls are given as the source filed them. Rule for the calls: active = hit-call score of the fitted dose curve at least 0.9, where 1 is the maximum; inconclusive = response in the unintended direction; inactive = score below 0.9.
Outcome Measure: AC50

Prompt: What does the record list as AC50 for `CCCN(CCOc1c(Cl)cc(Cl)cc1Cl)C(=O)n1ccnc1` ?
Response: 16.6 µM (active)

Prompt: Tell me the measured AC50 of `O=S(=O)(O)C(F)(F)C(F)(F)C(F)(F)C(F)(F)C(F)(F)C(F)(F)C(F)(F)C(F)(F)F` , please.
Response: 119 µM (active)

Prompt: Any idea what its AC50 is? The molecule is CC1(C)C(C=C(Cl)Cl)C1C(=O)OC(C#N)c1ccc(F)c(Oc2ccccc2)c1 (centres undefined)
Response: 20.5 µM (active)

Prompt: Item under review: `Oc1cc(Cl)ccc1Oc1ccc(Cl)cc1Cl` . Reported AC50?
Response: 11.1 µM (active)

====

Read-out: Cellular tumor antigen p53 (Homo sapiens)
Experiment: LTEA_HepaRG_TP53: Life Technologies and Expression Analysis (LTEA) Assay for Tumor Protein P53 (TP53) using HepaRG (AID 2283537)
Details: mRNA level, 48 h; actives raise or lower the signal
Active and inactive are the calls of the source. How the source made its calls: active means hit-call score of the fitted dose curve at least 0.9, where 1 is the maximum; inactive means score below 0.9.
Outcome Measure: AC50

INSERT INTO assay_data (molecule_smiles, outcome_measure, test_value) VALUES
  ('O=C(O)CCCOc1ccc(Cl)cc1Cl', 'AC50', 'inactive'),
  ('OCCOc1ccccc1', 'AC50', 'inactive'),
  ('C[C@H]1[C@H](c2ccc(Cl)cc2)SC(=O)N1C(=O)NC1CCCCC1', 'AC50', '82.3 µM (active)'),
  ('CC(C)N(C(=O)COc1nnc(C(F)(F)F)s1)c1ccc(F)cc1', 'AC50', 'inactive');

====

Read-out: Broad substrate specificity ATP-binding cassette transporter ABCG2 (Homo sapiens)
Assay: CLD_ABCG2_48hr: CellzDirect (CLD) Gene Expression Assay for ABC Transporter (ABCG2) at 48 hours (AID 2283704)
Inconclusive results are not listed. Calls of active or inactive are those of the source. The calls were made as follows: active = hit-call score of the fitted dose curve at least 0.9, where 1 is the maximum; inconclusive = response in the unintended direction; inactive = score below 0.9.
Respond using exactly one of the listed classes: TRUE = active, FALSE = inactive

Prompt: Please state the recorded outcome for this compound: CC[C@H](C)[C@H]1O[C@]2(C=C[C@@H]1C)C[C@@H]1C[C@@H](C/C=C(\C)[C@@H](O[C@H]3C[C@H](OC)[C@@H](O[C@H]4C[C@H](OC)[C@@H](O)[C@H](C)O4)[C@H](C)O3)[C@@H](C)/C=C/C=C3\CO[C@@H]4[C@H](O)C(C)=C[C@@H](C(=O)O1)[C@]34O)O2 (tested in a mixture with another compound)
Response: TRUE

Prompt: Lab log entry: `O=C(Nc1ccccc1)Nc1cnns1` — outcome as called in the assay?
Response: FALSE

Prompt: What outcome does the record of this test show for `CN1CSC(=S)N(C)C1` ?
Response: FALSE

Prompt: For `C[C@H]1[C@H](c2ccc(Cl)cc2)SC(=O)N1C(=O)NC1CCCCC1` , which call appears in the assay record?
Response: TRUE

Prompt: How did this test come out for `COC(=O)c1ccccc1CS(=O)(=O)NC(=O)Nc1nc(OC)cc(OC)n1` ?
Response: FALSE

Prompt: What outcome does the record of this test show for O=S1OCC2C(CO1)C1(Cl)C(Cl)=C(Cl)C2(Cl)C1(Cl)Cl (stereo not drawn) ?
Response: FALSE

Prompt: Can you look up the reported call for CC(C)(C)C(O)C(Oc1ccc(Cl)cc1)n1cncn1 (stereo not drawn) for me?
Response: FALSE

Prompt: Can you look up the reported call for `CCC(C)(C)C(=O)OC1=C(c2ccc(Cl)cc2Cl)C(=O)OC12CCCCC2` for me?
Response: FALSE

====

Read-out: CYP2E1 (gene 1571)
Test: LTEA_HepaRG_CYP2E1: Life Technologies and Expression Analysis (LTEA) Assay for CYP2E1 using HepaRG (AID 2283485)
Details: mRNA level, 48 h; actives raise or lower the signal
The source made the active and inactive calls. How the source made its calls: active means hit-call score of the fitted dose curve at least 0.9, where 1 is the maximum; inactive means score below 0.9.
Pick one: active, inactive

Prompt: Field: outcome | Entry: `CNC(=O)Oc1ccccc1OC(C)C`
Response: active

Prompt: Please state the recorded outcome for this compound: `CNC(=O)Oc1cccc(N=CN(C)C)c1`
Response: inactive

Prompt: Entry `O=C1c2ccccc2C(=O)N1SC(Cl)(Cl)Cl` : call = ?
Response: inactive

Prompt: Recorded test call requested for `O=C(Nc1ccccc1)Nc1cnns1`
Response: active

Prompt: Name the outcome recorded for CCC(C)Nc1c([N+](=O)[O-])cc(C(C)(C)C)cc1[N+](=O)[O-] (stereo unspecified) in the assay.
Response: active

Prompt: What did this assay record as the result for `N#CN` ?
Response: inactive

Prompt: Hi, sorry to bother you, what did the test record for `CN1CSC(=S)N(C)C1` ?
Response: inactive

Prompt: I'd appreciate the recorded outcome for `CNC(=O)/C=C(\C)OP(=O)(OC)OC` from this test.
Response: inactive

Prompt: Given `N#Cc1c(Cl)c(Cl)c(Cl)c(C#N)c1Cl` , state the outcome it received in this test.
Response: active

Prompt: Per the assay record, what outcome was assigned to `COP(=O)(OC)OC=C(Cl)Cl` ?
Response: inactive

Prompt: Hello, I am checking results. What call was entered for `COP(=S)(OC)Oc1ccc([N+](=O)[O-])cc1` ?
Response: inactive

====

Read-out: UDP glucuronosyltransferase (UGT1A6), UGT1A6 (gene 54578)
Test: LTEA_HepaRG_UGT1A6: Life Technologies and Expression Analysis (LTEA) Assay for UDP glucuronosyltransferase (UGT1A6) using HepaRG (AID 2283539)
Conditions: mRNA level, 48 h; actives raise or lower the signal
Active and inactive are the calls of the source. Rule for the calls: active = hit-call score of the fitted dose curve at least 0.9, where 1 is the maximum; inactive = score below 0.9.
Valid outcomes are listed here; reply with one: T for active, F for inactive

Prompt: Per the assay record, what outcome was assigned to `CNC(=O)Oc1ccccc1OC(C)C` ?
Response: F

Prompt: State the result this test recorded for O=C(NC(=O)c1c(F)cccc1F)Nc1ccc(OC(F)(F)C(F)OC(F)(F)F)c(Cl)c1 (stereo unspecified) .
Response: F

Prompt: Name the outcome recorded for `CCC(C)(C)C(=O)OC1=C(c2ccc(Cl)cc2Cl)C(=O)OC12CCCCC2` in the assay.
Response: F

Prompt: Test call, this compound: CC(C)(C)C(O)/C(=C\c1ccc(Cl)cc1Cl)n1cncn1 (stereo unspecified)
Response: T

Prompt: Hey, what did the test say about `O=C(O)C(F)(F)C(F)(F)C(F)(F)C(F)(F)C(F)(F)C(F)(F)C(F)(F)F` ?
Response: F

Prompt: Returns: the outcome recorded for `O=C(O)COc1ccc(Cl)cc1Cl` in this assay.
Response: F

Prompt: Please indicate how the test categorized `CCCN(CCOc1c(Cl)cc(Cl)cc1Cl)C(=O)n1ccnc1` .
Response: T

Prompt: Test call, this compound: `CC(C)OC(=O)Nc1cccc(Cl)c1`
Response: F

Prompt: Dear colleague, could you share the recorded outcome for `C#CCN1C(=O)COc2cc(F)c(N3C(=O)C4=C(CCCC4)C3=O)cc21` when you have a moment?
Response: F

Prompt: What call does the record list for CC1(c2ccc(Oc3ccccc3)cc2)OC(=O)N(Nc2ccccc2)C1=O (stereo unspecified) ?
Response: T

Prompt: For `CNC(=O)Oc1cccc(N=CN(C)C)c1` , what call appears in the results of this test?
Response: F
